experimental-details: The drug is tested on Z-003 corresponding to pig gut metagenome with ENA study accession number: PRJEB37062 and ENA sample accession number: ERS12561803 for biotransformation under anaerobic condition. The drug concentrations were measured over 9 timepoints collected between 0 and 24 hours of incubation by liquid-chromatography-coupled mass spectrometry (LC–MS); note: call rule not given here
conditions-used: 2 µM
endpoint-label: Bacterial Biotransformation

// known answers, use as guide
molecule | Bacterial Biotransformation
CN(C)C(=O)Oc1cc(OC(=O)N(C)C)cc(C(O)CNC(C)(C)C)c1 (stereo not given) | Compound NOT metabolized
CC(C)NCC(O)COc1ccc(CC(N)=O)cc1 (stereo not given) | Compound NOT metabolized
C=CC[C@@H]1/C=C(\C)C[C@H](C)C[C@H](OC)[C@H]2O[C@@](O)(C(=O)C(=O)N3CCCC[C@H]3C(=O)O[C@H](/C(C)=C/[C@@H]3CC[C@@H](O)[C@H](OC)C3)[C@H](C)[C@@H](O)CC1=O)[C@H](C)C[C@@H]2OC.O | Compound metabolized
OCCN(CCO)c1nc(N2CCCCC2)c2nc(N(CCO)CCO)nc(N3CCCCC3)c2n1 | Compound metabolized

We now examine a further molecule.
# Bacterial Biotransformation (molecule: `O=C(O)c1cc(/N=N/c2ccc(S(=O)(=O)Nc3ccccn3)cc2)ccc1O` ) is Compound metabolized

###

experimental-details: The drug is tested on WLS-006 corresponding to human gut metagenome with ENA study accession number: PRJEB37062 and ENA sample accession number: ERS12561741 for biotransformation under anaerobic condition. The drug concentrations were measured over 9 timepoints collected between 0 and 24 hours of incubation by liquid-chromatography-coupled mass spectrometry (LC–MS)
conditions-used: 2 µM
endpoint-label: Bacterial Biotransformation

smiles-representation | result
COc1ccc(Cc2nccc3cc(OC)c(OC)cc23)cc1OC | Compound NOT metabolized
OCCN(CCO)c1nc(N2CCCCC2)c2nc(N(CCO)CCO)nc(N3CCCCC3)c2n1 | Compound NOT metabolized

###

experimental-details: The drug is tested on WLS-370 corresponding to human gut metagenome with ENA study accession number: PRJEB37062 and ENA sample accession number: ERS12561793 for biotransformation under anaerobic condition. The drug concentrations were measured over 9 timepoints collected between 0 and 24 hours of incubation by liquid-chromatography-coupled mass spectrometry (LC–MS)
conditions-used: 2 µM
endpoint-label: Bacterial Biotransformation

// known answers, use as guide
molecule | Bacterial Biotransformation
N[C@@H](Cc1ccc(N(CCCl)CCCl)cc1)C(=O)O | Compound NOT metabolized
COC1=C(OC)C(=O)C(CCCCCCCCCCO)=C(C)C1=O | Compound metabolized
CC(=O)Oc1ccc(C(c2ccc(OC(C)=O)cc2)c2ccccn2)cc1 | Compound metabolized
C=C[C@H]1CN2CC[C@H]1C[C@H]2[C@H](O)c1ccnc2ccc(OC)cc12.C=C[C@H]1CN2CC[C@H]1C[C@H]2[C@H](O)c1ccnc2ccc(OC)cc12.O.O.O=S(=O)(O)O [QUININE SULFATE] | Compound NOT metabolized
CN1CCN(C2=Nc3ccccc3Oc3ccc(Cl)cc32)CC1.O=C(O)CCC(=O)O [LOXAPINE SUCCINATE] | Compound NOT metabolized
Cc1cc(C)cc(OCC2CNC(=O)O2)c1 (configuration not stated) | Compound metabolized
CN(C/C=C/C#CC(C)(C)C)Cc1cccc2ccccc12 | Compound NOT metabolized
CNNCc1ccc(C(=O)NC(C)C)cc1 | Compound metabolized

# Bacterial Biotransformation (molecule: CN(C)C(=O)Oc1cc(OC(=O)N(C)C)cc(C(O)CNC(C)(C)C)c1 (configuration not stated) ) is Compound NOT metabolized

# Bacterial Biotransformation (molecule: COc1cc2nc(N3CCN(C(=O)C4COc5ccccc5O4)CC3)nc(N)c2cc1OC.CS(=O)(=O)O (configuration not stated) [DOXAZOSIN MESYLATE] ) is Compound metabolized

# Bacterial Biotransformation (molecule: `COc1ccc2cc([C@H](C)C(=O)O)ccc2c1` ) is Compound NOT metabolized

# Bacterial Biotransformation (molecule: `CC(=O)OCC(CCn1cnc2cnc(N)nc21)COC(C)=O` ) is Compound metabolized
